# Tested on: Caco-2 colon cancer cells
# experiment description: In vitro antitumor MTT assay, Caco-2
# Type: cell-based, human
# condition description: Homo sapiens, Caco-2, 24 h, read-out: IC50 Caco-2
pIC50: −log10 of the molar value.
assay metric: pIC50

Record excerpt, results attached:
INSERT INTO results (molecule, measured) VALUES
  ('O=C(CN1CCN(c2nc3ccccc3[nH]c2=O)CC1)Nc1ccc(Cl)cc1 [Compound 13c]', 5.04),
  ('O=C(CN1CCN(c2nc3ccccc3[nH]c2=O)CC1)Nc1ccc(F)cc1 [Compound 13d]', 4.89),
  ('O=C(CN1CCN(c2nc3ccccc3[nH]c2=O)CC1)NCc1ccccc1 [Compound 14]', 4.78),
  ('CNC(=O)c1cc(Oc2ccc(NC(=O)Nc3ccc(Cl)c(C(F)(F)F)c3)cc2)ccn1 [Sorafenib, reference compound]', 5.03),
  ('O=C(CN1CCN(c2nc3ccccc3nc2Cl)CC1)Nc1ccc(Cl)cc1 [Compound 10c]', 5.03);

[P] O=C(CN1CCN(c2nc3ccccc3[nH]c2=O)CC1)Nc1ccccc1 [Compound 13a]
[Q] O=C(CN1CCN(c2nc3ccccc3nc2Cl)CC1)Nc1ccc(F)cc1 [Compound 10d]
input: Identify the entry with the smaller pIC50: P or Q . Give the chosen item's label as your response.
output: Q

---

# test target: VEGFR-2 kinase (Homo sapiens)
# Sequence (P35968 20-1356): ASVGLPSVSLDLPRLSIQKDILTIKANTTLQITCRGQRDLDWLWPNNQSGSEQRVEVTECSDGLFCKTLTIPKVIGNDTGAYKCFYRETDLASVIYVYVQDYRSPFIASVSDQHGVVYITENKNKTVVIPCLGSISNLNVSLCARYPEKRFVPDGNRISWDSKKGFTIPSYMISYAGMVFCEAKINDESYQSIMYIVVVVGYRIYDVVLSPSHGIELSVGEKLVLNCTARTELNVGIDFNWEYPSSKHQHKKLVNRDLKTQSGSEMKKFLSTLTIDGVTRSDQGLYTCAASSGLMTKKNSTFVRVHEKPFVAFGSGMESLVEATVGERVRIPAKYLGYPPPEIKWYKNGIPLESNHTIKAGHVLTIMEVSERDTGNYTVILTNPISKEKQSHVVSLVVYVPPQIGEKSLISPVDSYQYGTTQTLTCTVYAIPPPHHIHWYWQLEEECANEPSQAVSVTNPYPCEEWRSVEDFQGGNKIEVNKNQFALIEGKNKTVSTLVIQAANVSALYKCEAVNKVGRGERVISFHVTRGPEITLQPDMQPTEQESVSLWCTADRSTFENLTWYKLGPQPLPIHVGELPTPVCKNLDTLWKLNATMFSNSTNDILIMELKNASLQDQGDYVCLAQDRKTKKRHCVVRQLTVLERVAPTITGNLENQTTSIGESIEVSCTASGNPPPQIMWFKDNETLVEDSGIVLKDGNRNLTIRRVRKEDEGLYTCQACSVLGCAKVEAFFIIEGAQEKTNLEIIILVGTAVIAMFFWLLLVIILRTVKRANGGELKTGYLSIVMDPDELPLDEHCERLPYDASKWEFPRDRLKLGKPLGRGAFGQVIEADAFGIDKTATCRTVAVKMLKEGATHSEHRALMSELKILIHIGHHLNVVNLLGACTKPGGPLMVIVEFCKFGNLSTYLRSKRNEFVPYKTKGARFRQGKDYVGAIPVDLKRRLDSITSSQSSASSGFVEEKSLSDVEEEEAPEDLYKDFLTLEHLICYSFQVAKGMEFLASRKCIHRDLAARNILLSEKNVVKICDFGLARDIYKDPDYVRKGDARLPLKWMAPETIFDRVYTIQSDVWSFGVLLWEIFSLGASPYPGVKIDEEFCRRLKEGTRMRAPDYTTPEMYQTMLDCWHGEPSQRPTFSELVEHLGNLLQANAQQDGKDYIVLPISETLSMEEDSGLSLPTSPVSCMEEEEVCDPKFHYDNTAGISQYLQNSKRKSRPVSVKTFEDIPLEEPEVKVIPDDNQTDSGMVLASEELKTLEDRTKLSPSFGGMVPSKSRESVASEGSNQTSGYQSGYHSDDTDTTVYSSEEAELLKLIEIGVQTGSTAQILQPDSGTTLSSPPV
pIC50: −log10 of the molar value.
assay metric: pIC50

Worked set:
INSERT INTO assay_data (compound, measured) VALUES
  ('O=C(CN1CCN(c2nc3ccccc3[nH]c2=O)CC1)Nc1ccccc1 [Compound 13a]', 6.59),
  ('O=C(CN1CCN(c2nc3ccccc3nc2Cl)CC1)Nc1ccc([N+](=O)[O-])cc1 [Compound 10g]', 6.48),
  ('COc1ccc(NC(=O)CN2CCN(c3nc4ccccc4[nH]c3=O)CC2)cc1 [Compound 13b]', 6.33),
  ('CC(=O)c1ccc(NC(=O)CN2CCN(c3nc4ccccc4[nH]c3=O)CC2)cc1 [Compound 13f]', 6.33);

[A] O=C(CN1CCN(c2nc3ccccc3[nH]c2=O)CC1)Nc1ccc(F)cc1 [Compound 13d]
[B] Cc1ccc(NC(=O)CN2CCN(c3nc4ccccc4nc3Cl)CC2)cc1 [Compound 10e]
input: Higher pIC50 between A and B ? Answer = label.
output: B

---

# Test system: HepG-2 hepatoma cells
# experiment description: In vitro antitumor MTT assay, HepG-2
# Format: cell-based, human
# condition description: read-out: IC50 HepG-2; MTT, 24 h treatment, mean of three experiments
assay metric: IC50 (µM)

INSERT INTO assay_data (compound, test_target, measured) VALUES
  ('CC(=O)c1ccc(NC(=O)CN2CCN(c3nc4ccccc4[nH]c3=O)CC2)cc1 [Compound 13f]', 'HepG-2 hepatoma cells', 8.4),
  ('O=C(CN1CCN(c2nc3ccccc3[nH]c2=O)CC1)Nc1ccc(F)cc1 [Compound 13d]', 'HepG-2 hepatoma cells', 8.35),
  ('COc1ccc(NC(=O)CN2CCN(c3nc4ccccc4[nH]c3=O)CC2)cc1 [Compound 13b]', 'HepG-2 hepatoma cells', 8.83);

---

# System: A549 lung cancer cells
# experiment description: In vitro antitumor MTT assay, A549
# Assay type: cell-based, human
# condition description: Homo sapiens, A549, 24 h, read-out: IC50 A549
assay metric: IC50 (µM)

[A] COc1ccc(NC(=O)CN2CCN(c3nc4ccccc4[nH]c3=O)CC2)cc1 [Compound 13b]
[B] COc1ccc(NC(=O)CN2CCN(c3nc4ccccc4nc3Cl)CC2)cc1 [Compound 10b]
input: Which has the smaller recorded IC50, A or B ? Indicate which entry you chose by stating its label.
output: B
